Biological target: Human collagenase (MMP-1) (Homo sapiens, UniProt P03956)
Sequence (P03956 101-269): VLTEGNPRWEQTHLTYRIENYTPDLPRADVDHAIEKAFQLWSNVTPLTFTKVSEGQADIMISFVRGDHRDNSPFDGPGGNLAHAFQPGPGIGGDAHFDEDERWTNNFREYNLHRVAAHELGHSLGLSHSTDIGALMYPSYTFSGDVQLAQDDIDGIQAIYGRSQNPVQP
pKi: −log10 of the molar value.
experimental_readout: pKi

>>> quantitative_readout("COc1ccc(CCC[C@@H](C(=O)N2CCC2)[C@H](N)C(=O)NO)cc1")
5.12

I. COc1ccc(CCC[C@@H](C(=O)N2CCCCC2)[C@H](N)C(=O)NO)cc1
II. CS(=O)(=O)N[C@H](C(=O)NO)[C@@H](CC1CCCC1)C(=O)N1CCN(Cc2ccc3c(c2)OCO3)CC1
Request: Hi, I'm comparing I with II and wondering which one has the bigger number for pKi. Any idea? Provide the label of your selected option as the answer.
Response: II
(II: 8.34, I: 6.07)
